The values you see were collected from patent US20230144436A1.

Reported values of Percent DMPK Reduction for individual entries
# Tested on: DMPK
# procedure.details: DMPK knockdown by transfected antisense oligonucleotides in DM1 C15 myotubes at 0.5 nM and 50 nM
# Type: cell-based
# conditions: 50 nM oligonucleotide, 72 hours, qPCR, relative to vehicle control
Write the value in % as a bare number.

308 (UGACAAUCUCCGCCAGGUAG; chemistry not given here) [compound 308]	66.56
259 (CAGCUGCGUGAUCCACCGCC; chemistry not given here) [compound 259]	68.34
340 (GUACAGGUAGUUCUCAUCCU; chemistry not given here) [compound 340]	65.57
369 (CAUGACAAUCUCCGCCAGGU; chemistry not given here) [compound 369]	70.52

Which value of Percent DMPK Reduction has been reported for 291 (AUACUCCAUGACCAGGUACA; chemistry not given here) [compound 291] in the records? 56.84

Query 257 (CAUGGCAUACACCUGGCCCG; chemistry not given here) [compound 257] next 74.03

Also 304 (UUCCCGAGUAAGCAGGCAGA; chemistry not given here) [compound 304] ? 49.81

Would you mind doing 375 (CGGCUCAGGCUCUGCCGGGU; chemistry not given here) [compound 375] as well? 69.03

Can you check 341 (AGGGCGUCUGCCCAUAGAAC; chemistry not given here) [compound 341] next? 58.98

Record: 276 (UGUGCACGUAGCCAAGCCGG; chemistry not given here) [compound 276] 75.09

Queued: 352 (AAAUACCGAGGAAUGUCGGG; chemistry not given here) [compound 352] 50.91

Again, but for 362 (GCUGUCCCGGAGACCAUCCC; chemistry not given here) [compound 362] 66.27

Same question, 273 (CUGUGCACGUAGCCAAGCCG; chemistry not given here) [compound 273] this time 70.10

Follow-up entry: 267 (CUUGUUCAUGAUCUUCAUGG; chemistry not given here) [compound 267] 49.47

What do you get for 355 (CCCGUCUGCUUCAUCUUCAC; chemistry not given here) [compound 355] ? 43.97

----------
# Tested on: DMPK
# procedure.details: DMPK knockdown by transfected antisense oligonucleotides in DM1 C15 myotubes at 0.5 nM and 50 nM
# Format: cell-based
# conditions: 50 nM oligonucleotide, 72 hours, qPCR, relative to vehicle control = 1.00
Entries and their measured Normalized DMPK Remaining follow.
Reply briefly: the number, and no unit.

339 (CUCCGCCAGGUAGAAGCGCG; chemistry not given here) [compound 339]	0.22
360 (GACAAUAAAUACCGAGGAAU; chemistry not given here) [compound 360]	0.52
344 (UCUGCCGCAGGGACAGCCGC; chemistry not given here) [compound 344]	0.18

// Normalized DMPK Remaining lookup, key: 332 (AAUCUCCGCCAGGUAGAAGC; chemistry not given here) [compound 332] 0.35

Note, next up: 281 (ACAGCGGUCCAGCAGGAUGU; chemistry not given here) [compound 281] 0.45

----------
# Tested on: DMPK
# procedure.details: DMPK knockdown by transfected antisense oligonucleotides in DM1 C15 myotubes at 0.5 nM and 50 nM
# Type: cell-based
# conditions: 50 nM oligonucleotide, 72 hours, relative to vehicle control = 1.00
Response key: Criterion met means Normalized DMPK Remaining >= 0.2; Criterion not met means Normalized DMPK Remaining < 0.2.

Recorded results for 2 substances are shown here.
427 (UUGUUCAUGAUCUUCAUGGC; chemistry not given here) [compound 427]	Criterion met
478 (CCAGCGGCAGAGAGAGGUGC; chemistry not given here) [compound 478]	Criterion not met

Does the substance 481 (GGGAAAGCGCCUCCGAUAGG; chemistry not given here) [compound 481] have recorded Normalized DMPK Remaining that is 0.2 or more? Criterion met

Param item: 419 (UGCGGAUGGCCUCCAUCUCC; chemistry not given here) [compound 419] Criterion not met
